- procedureDetails: Retardation factor in ethyl acetate-pyridine-acetic acid-water at 5:5:1:3 ratio by TLC
- Format: physicochemical
- condition: buffer
*1 amine or outer side, *2 acyl side, *3 side chain or, on linkers, in order; H or OH if unused. Where a SMILES comes first, the peptide text is derived from it. [ ]: non-standard residue; d: D form. X1 = CCCCCCCCCCCCNCCC[C@@H](N[*:1])C(=O)[*:2]; pGlu = O=C1CC[C@@H](C(=O)O)N1
quantityMeasured: Rf
// print number alone

Query block: State the recorded Rf for this entry: CCNC(=O)[C@@H]1CCCN1C(=O)[C@H](CCCNC(=N)N)NC(=O)[C@H](CC(C)C)NC(=O)[C@@H](CCCCN)NC(=O)[C@H](Cc1ccc(O)cc1)NC(=O)[C@H](CO)NC(=O)[C@H](Cc1c[nH]c2ccccc12)NC(=O)[C@H](Cc1cnc[nH]1)NC(=O)[C@@H]1CCC(=O)N1
Result block: 0.63

Query block: State the recorded Rf for this entry: CCCCCCCCCCCCNCCC[C@@H](NC(=O)[C@H](Cc1ccc(O)cc1)NC(=O)[C@H](CO)NC(=O)[C@H](Cc1c[nH]c2ccccc12)NC(=O)[C@@H]1CCC(=O)N1)C(=O)N[C@@H](CC(C)C)C(=O)N[C@@H](CCCNC(=N)N)C(=O)N1CCC[C@H]1C(=O)NCC ([pGlu]WSY[X1]LRP-NHEt)
Result block: 0.55

Query block: State the recorded Rf for this entry: CC(=O)NCCC[C@@H](NC(=O)[C@H](Cc1ccc(O)cc1)NC(=O)[C@H](CO)NC(=O)[C@H](Cc1c[nH]c2ccccc12)NC(=O)[C@H](Cc1cnc[nH]1)NC(=O)[C@@H]1CCC(=O)N1)C(=O)N[C@@H](CC(C)C)C(=O)N[C@@H](CCCNC(=N)N)C(=O)N1CCC[C@H]1C(=O)NCC(N)=O
Result block: 0.66

Query block: State the recorded Rf for this entry: CC(C)C[C@H](NC(=O)[C@@H](CCCN)NC(=O)[C@H](Cc1ccc(O)cc1)NC(=O)[C@H](CO)NC(=O)[C@H](Cc1c[nH]c2ccccc12)NC(=O)[C@H](Cc1cnc[nH]1)NC(=O)[C@@H]1CCC(=O)N1)C(=O)N[C@@H](CCCNC(=N)N)C(=O)N1CCC[C@H]1C(=O)NCC(N)=O
Result block: 0.6

Query block: State the recorded Rf for this entry: CC(=O)NCCCC[C@@H](NC(=O)[C@H](Cc1ccc(O)cc1)NC(=O)[C@H](CO)NC(=O)[C@H](Cc1c[nH]c2ccccc12)NC(=O)[C@H](Cc1cnc[nH]1)NC(=O)[C@@H]1CCC(=O)N1)C(=O)N[C@@H](CC(C)C)C(=O)N[C@@H](CCCNC(=N)N)C(=O)N1CCC[C@H]1C(=O)NCC(N)=O
Result block: 0.69

Query block: State the recorded Rf for this entry: CCCCCCCCCCCCNCCCC[C@@H](NC(=O)[C@H](Cc1ccc(O)cc1)NC(=O)[C@H](CO)NC(=O)[C@H](Cc1c[nH]c2ccccc12)NC(=O)[C@H](Cc1cnc[nH]1)NC(=O)[C@@H]1CCC(=O)N1)C(=O)N[C@@H](CC(C)C)C(=O)N[C@@H](CCCNC(=N)N)C(=O)N1CCC[C@H]1C(=O)NCC(N)=O
Result block: 0.35
